B1: SAM and SH3 domain-containing protein 1, residues 630 to 700; numbered along this chain, O94885 (parent)
chain: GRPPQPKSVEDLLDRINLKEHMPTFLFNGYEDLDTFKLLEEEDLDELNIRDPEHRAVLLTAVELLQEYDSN

variants of: B1; experiment: abundance fitness (aPCA) (normalised: wild type 0, dead -1); higher = more abundant; growth selection in yeast, the domain comes from the species named; settings: Homo sapiens
# binarize abundance fitness: threshold -0.5 inclusive, high side true, low side false

For orientation, consider the following solved cases.
[
  {
    "Changes": "N28C",
    "Classification": "false"
  },
  {
    "Changes": "E20T",
    "Classification": "true"
  },
  {
    "Changes": "S8P",
    "Classification": "false"
  }
]

Now turn to the next variant.
Hello, I need to know if `L65A` has measured abundance fitness not below -0.5. Thanks!
false
